protocol-notes: Elimination of DDTs from carp and carp tissues/organs after transfer to un-spiked sediment
Assay type: in vivo, Cyprinus carpio
particulars: carp heart
Listed here are molecules together with their documented elimination percentage in heart.
Provide a numeric answer, followed by its unit.

Solved cases below.
Clc1ccc(C(c2ccccc2Cl)C(Cl)Cl)cc1 (stereo not shown)	72.5%
Clc1ccc(C(c2ccc(Cl)cc2)C(Cl)Cl)cc1	69.6%
Clc1ccc(C(c2ccccc2Cl)C(Cl)(Cl)Cl)cc1 (stereo not shown)	51.9%

Switching to the query record.
Per the records, this molecule ( ClC(Cl)=C(c1ccc(Cl)cc1)c1ccc(Cl)cc1 ) has elimination percentage in heart equal to 59.9%

====

elimination percentage from gallbladder values for the molecules below.
protocol-notes: Elimination of DDTs from carp and carp tissues/organs after transfer to un-spiked sediment
Format: in vivo, Cyprinus carpio
particulars: carp gallbladder
Only the number, expressed in %, is required.

ClC(Cl)=C(c1ccc(Cl)cc1)c1ccccc1Cl	24.1
Clc1ccc(C(c2ccccc2Cl)C(Cl)Cl)cc1 (stereo not shown)	66.9
ClC(Cl)=C(c1ccc(Cl)cc1)c1ccc(Cl)cc1	50.8

Please look at the following molecule next.
The molecule listed as Clc1ccc(C(c2ccc(Cl)cc2)C(Cl)Cl)cc1 shows elimination percentage from gallbladder equal to 64.1

====

protocol-notes: Elimination of DDTs from carp and carp tissues/organs after transfer to un-spiked sediment
Format: in vivo, Cyprinus carpio
particulars: carp brain, end of experiments
measure-name: percentage eliminated from brain (%)
Respond with the bare value in %.

Solved entries (count: 3):
Clc1ccc(C(c2ccccc2Cl)C(Cl)Cl)cc1 (stereo not shown) [o,p’-DDD]	65.5
Clc1ccc(C(c2ccc(Cl)cc2)C(Cl)Cl)cc1 [p,p’-DDD]	61.4
ClC(Cl)=C(c1ccc(Cl)cc1)c1ccccc1Cl [o,p’-DDE]	55.0

From here, focus on the item given below.
Reported percentage eliminated from brain of ClC(Cl)=C(c1ccc(Cl)cc1)c1ccc(Cl)cc1 [p,p’-DDE] : 52.8

====

protocol-notes: Elimination of DDTs from carp and carp tissues/organs after transfer to un-spiked sediment
Format: in vivo, Cyprinus carpio
particulars: carp kidney, end of experiments
measure-name: percentage eliminated from kidney (%)
The reply should be a number in %, with the unit left off.

Please review the following examples before continuing.
ClC(Cl)=C(c1ccc(Cl)cc1)c1ccc(Cl)cc1 [p,p’-DDE]	48.7
ClC(Cl)=C(c1ccc(Cl)cc1)c1ccccc1Cl [o,p’-DDE]	47.5
Clc1ccc(C(c2ccccc2Cl)C(Cl)Cl)cc1 (stereo not shown) [o,p’-DDD]	65.4

Turning now to a further molecule:
percentage eliminated from kidney measured on Clc1ccc(C(c2ccc(Cl)cc2)C(Cl)Cl)cc1 [p,p’-DDD] = 63.9

====

concentration at 9 day values, listed per item
protocol-notes: Bioaccumulation of DDTs in carp and carp tissues/organs in DDT spiked-sediment microcosm (food web)
Assay type: in vivo, Cyprinus carpio
particulars: Cyprinus carpio (carp), whole fish (wet weight), other: spiked sediment-water system with T. tubifex as prey; whole carp, treatment group, 9th day; read-out: concentration in carp at steady state
Express the reported value numerically, then name its unit.

Clc1ccc(C(c2ccc(Cl)cc2)C(Cl)(Cl)Cl)cc1	57.3 ng/g

Now let's try a different one.
The compound listed as Clc1ccc(C(c2ccccc2Cl)C(Cl)(Cl)Cl)cc1 (centres unmarked) shows concentration at 9 day equal to 39.1 ng/g

====

Quick list: elimination efficiency in T. tubifex per entry.
protocol-notes: Elimination of DDTs in T. tubifex after transfer to un-spiked sediment
Type: in vivo
particulars: elimination experiment in un-spiked sediment
Returns: string containing the numeric result and its unit.

Completed entries (count: 5):
ClC(Cl)=C(c1ccc(Cl)cc1)c1ccccc1Cl [o,p’-DDE]	39.5%
Clc1ccc(C(c2ccccc2Cl)C(Cl)(Cl)Cl)cc1 (stereo not drawn) [o,p’-DDT]	65.7%
Clc1ccc(C(c2ccc(Cl)cc2)C(Cl)Cl)cc1 [p,p’-DDD]	58.2%
Clc1ccc(C(c2ccccc2Cl)C(Cl)Cl)cc1 (stereo not drawn) [o,p’-DDD]	49.0%
Clc1ccc(C(c2ccc(Cl)cc2)C(Cl)(Cl)Cl)cc1 [p,p’-DDT]	73.6%

GET /value?item= ClC(Cl)=C(c1ccc(Cl)cc1)c1ccc(Cl)cc1 [p,p’-DDE] &field=elimination efficiency in T. tubifex returns 25.7%

====

Each record here notes measured maximum concentration in T. tubifex.
protocol-notes: Bioaccumulation of DDTs in T. tubifex in DDT spiked-sediment microcosm
Assay type: in vivo
particulars: treatment group, fifth day
Just the number in ng/gwwt, nothing appended.

Notebook: Clc1ccc(C(c2ccccc2Cl)C(Cl)(Cl)Cl)cc1 (stereo not shown) [o,p’-DDT] , maximum concentration in T. tubifex read as 74.6

// maximum concentration in T. tubifex value for ClC(Cl)=C(c1ccc(Cl)cc1)c1ccccc1Cl [o,p’-DDE] : 2.1

maximum concentration in T. tubifex in this record for ClC(Cl)=C(c1ccc(Cl)cc1)c1ccc(Cl)cc1 [p,p’-DDE] : 21.7

Clc1ccc(C(c2ccc(Cl)cc2)C(Cl)(Cl)Cl)cc1 [p,p’-DDT] yielded maximum concentration in T. tubifex of 165.5

// data source = paper PMC5442124
